# TESTED_ON: KRAS G13C (Homo sapiens, UniProt P01116+P62937, G13C)
# Sequence (P01116 1-169 isoform P01116-2 G13C limits assumed): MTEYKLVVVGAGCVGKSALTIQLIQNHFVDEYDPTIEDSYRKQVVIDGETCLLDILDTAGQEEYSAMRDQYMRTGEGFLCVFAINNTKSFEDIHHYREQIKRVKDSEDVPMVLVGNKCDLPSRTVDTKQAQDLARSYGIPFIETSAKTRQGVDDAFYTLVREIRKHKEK
# Sequence (P62937 whole entry): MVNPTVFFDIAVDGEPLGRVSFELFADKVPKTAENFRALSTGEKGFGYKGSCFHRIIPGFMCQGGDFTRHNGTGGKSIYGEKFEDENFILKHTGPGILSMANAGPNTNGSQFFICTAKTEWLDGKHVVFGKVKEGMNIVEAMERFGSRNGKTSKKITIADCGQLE
# ASSAY_NOTES: Ras-Raf disruption / FRET / MOA assay (BRAF RBD)
# Assay type: biochemical
# REPORTED_CONDITIONS: KRAS G13C FRET data IC50, Ras-Raf disruption, with Cyclophilin A
PARAMETER: IC50

Known value: KRAS G13C (Homo sapiens, UniProt P01116+P62937, G13C) IC50 of the compound `CCn1c(-c2cccnc2[C@H](C)OC)c2c3cc(ccc31)-c1cc(cc(C(F)F)c1)C[C@H](NC(=O)[C@H](C1CCCC1)N(C)C(=O)CN(C)C(=O)[C@@H]1N[C@@H]1C1CC1)C(=O)N1CCC[C@H](N1)C(=O)OCC(C)(C)C2` equals 100 to 1000 nM

Known value: KRAS G13C (Homo sapiens, UniProt P01116+P62937, G13C) IC50 of the compound `CCn1c(-c2cccnc2[C@H](C)OC)c2c3cc(ccc31)-c1cc(O)cc(c1)C[C@H](NC(=O)[C@H](C(C)C)N1CC[C@H](NC(=O)[C@H]3CN3)C1=O)C(=O)N1CCC[C@H](N1)C(=O)OCC(C)(C)C2` equals 10 to 100 nM

Known value: KRAS G13C (Homo sapiens, UniProt P01116+P62937, G13C) IC50 of the compound `CCn1c(-c2cccnc2[C@H](C)OC)c2c3cc(ccc31)-c1cc(O)cc(c1)C[C@H](NC(=O)[C@H](C(C)C)N(C)C(=O)CN(C)C(=O)[C@H]1N[C@@H]1C1CC1)C(=O)N1CCC[C@H](N1)C(=O)OCC(C)(C)C2` equals < 10 nM

Known value: KRAS G13C (Homo sapiens, UniProt P01116+P62937, G13C) IC50 of the compound `CCn1c(-c2cccnc2[C@H](C)OC)c2c3cc(ccc31)-c1cc(O)cc(c1)C[C@H](NC(=O)[C@H](C1CCCC1)N(C)C(=O)CN(C)C(=O)[C@H]1N[C@H]1C1(F)CC1)C(=O)N1CCC[C@H](N1)C(=O)OCC(C)(C)C2` equals 10 to 100 nM

Known value: KRAS G13C (Homo sapiens, UniProt P01116+P62937, G13C) IC50 of the compound CCn1c(-c2cccnc2[C@H](C)OC)c2c3cc(ccc31)-c1cc(O)cc(c1)C[C@H](NC(=O)[C@H](C(C)C)N(C)C(=O)CN(C)C(=O)[C@H]1CN1CCCN1CCOC1=O)C(=O)N1CCC[C@H](N1)C(=O)OCC(C)(C)C2 (stereo partly drawn) equals 10 to 100 nM

Known value: KRAS G13C (Homo sapiens, UniProt P01116+P62937, G13C) IC50 of the compound `CCn1c(-c2cccnc2[C@H](C)OC)c2c3cc(ccc31)-c1csc(n1)C[C@H](NC(=O)[C@H](C1CCCC1)N(C)C(=O)CN(C)C(=O)[C@H]1CN1)C(=O)N1CCC[C@H](N1)C(=O)OCC(C)(C)C2` equals 1000 to 10000 nM

Known value: KRAS G13C (Homo sapiens, UniProt P01116+P62937, G13C) IC50 of the compound CCn1c(-c2cccnc2[C@H](C)OC)c2c3cc(ccc31)-c1cc(O)cc(c1)C[C@H](NC(=O)[C@H](C(C)C)N(C)C(=O)CN(C)C(=O)[C@H]1CN1C1COC1)C(=O)N1CCC[C@H](N1)C(=O)OCC(C)(C)C2 (stereo partly drawn) equals 10 to 100 nM

Known value: KRAS G13C (Homo sapiens, UniProt P01116+P62937, G13C) IC50 of the compound `CCn1c(-c2cccnc2[C@H](C)OC)c2c3cc(ccc31)-c1cc(O)cc(c1)C[C@H](NC(=O)[C@H](C(C)C)N(C)C(=O)[C@@H](C)N(C)C(=O)[C@H]1CN1)C(=O)N1CCC[C@H](N1)C(=O)OCC(C)(C)C2` equals 100 to 1000 nM

Known value: KRAS G13C (Homo sapiens, UniProt P01116+P62937, G13C) IC50 of the compound CCN1C[C@@H]1C(=O)N(C)CC(=O)N(C)[C@H](C(=O)N[C@H]1Cc2cc(O)cc(c2)-c2ccc3c(c2)c(c(-c2cccnc2[C@H](C)OC)n3CC)CC(C)(C)COC(=O)[C@@H]2CCCN(N2)C1=O)C1CCCC1 (stereo partly drawn) equals 10 to 100 nM

Known value: KRAS G13C (Homo sapiens, UniProt P01116+P62937, G13C) IC50 of the compound CCn1c(-c2cccnc2[C@H](C)OC)c2c3cc(ccc31)-c1cc(O)cc(c1)C[C@H](NC(=O)[C@H](C(C)C)N(C)C(=O)CN(C)C(=O)[C@@H]1CN1C(C)C)C(=O)N1CCC[C@H](N1)C(=O)OCC(C)(C)C2 (stereo partly drawn) equals 10 to 100 nM

Known value: KRAS G13C (Homo sapiens, UniProt P01116+P62937, G13C) IC50 of the compound `CCn1c(-c2cc(N3CCN(C)CC3)cnc2[C@H](C)OC)c2c3cc(ccc31)-c1cc(O)cc(c1)C[C@H](NC(=O)[C@H](C1CCCC1)N(C)C(=O)CN(C)C(=O)[C@@H]1N[C@@H]1C1CC1)C(=O)N1CCC[C@H](N1)C(=O)OCC(C)(C)C2` equals < 10 nM

Known value: KRAS G13C (Homo sapiens, UniProt P01116+P62937, G13C) IC50 of the compound `CCn1c(-c2cccnc2[C@H](C)OC)c2c3cc(ccc31)-c1cc(O)cc(c1)C[C@H](NC(=O)[C@H](C(C)C)N(C)C(=O)[C@]13C[C@H]1CCN3C(=O)[C@@H]1CN1)C(=O)N1CCC[C@H](N1)C(=O)OCC(C)(C)C2` equals 100 to 1000 nM

Known value: KRAS G13C (Homo sapiens, UniProt P01116+P62937, G13C) IC50 of the compound `CCn1c(-c2cc(C3CCN(C)CC3)cnc2[C@H](C)OC)c2c3cc(ccc31)-c1cc(O)cc(c1)C[C@H](NC(=O)[C@H](C1CCCC1)N(C)C(=O)CN(C)C(=O)[C@H]1CN1)C(=O)N1CCC[C@H](N1)C(=O)OCC(C)(C)C2` equals < 10 nM

Known value: KRAS G13C (Homo sapiens, UniProt P01116+P62937, G13C) IC50 of the compound CCn1c(-c2cccnc2[C@H](C)OC)c2c3cc(ccc31)-c1cc(O)cc(c1)C[C@H](NC(=O)[C@H](C(C)C)N(C)C(=O)CN(C)C(=O)[C@H]1CN1CC1(C)COC1)C(=O)N1CCC[C@H](N1)C(=O)OCC(C)(C)C2 (stereo partly drawn) equals 10 to 100 nM

Known value: KRAS G13C (Homo sapiens, UniProt P01116+P62937, G13C) IC50 of the compound CCn1c(-c2cccnc2[C@H](C)OC)c2c3cc(ccc31)-c1cc(O)cc(c1)C[C@H](NC(=O)[C@H](C(C)C)N(C)C(=O)CN(C)C(=O)[C@H]1CN1CCCC#N)C(=O)N1CCC[C@H](N1)C(=O)OCC(C)(C)C2 (stereo partly drawn) equals 10 to 100 nM
